# Tested on: dCK-C3S-S74E
# Sequence (P27707 whole entry S74E, form open): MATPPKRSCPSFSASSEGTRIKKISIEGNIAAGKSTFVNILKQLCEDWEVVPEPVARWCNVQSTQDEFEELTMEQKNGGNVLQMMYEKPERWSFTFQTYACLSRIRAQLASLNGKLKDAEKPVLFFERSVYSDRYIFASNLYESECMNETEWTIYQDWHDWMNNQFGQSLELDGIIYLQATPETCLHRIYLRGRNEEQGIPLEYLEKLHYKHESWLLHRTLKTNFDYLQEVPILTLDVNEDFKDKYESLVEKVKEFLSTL
# Test Details: Thermal shift assay (TSA)
# Measurement Context: Figure 2a, mean
# key: entry, value: ΔTm (º) (TSA)

Query: ΔTm (º) (TSA); subject: `CCCN(c1nc(-c2nc(N)cc(N)n2)cs1)c1cc(-c2ccc(CN(C)C)cc2)ccc1C` 16.88 º

Query: ΔTm (º) (TSA); subject: `CCCN(c1nc(-c2nc(N)cc(N)n2)cs1)c1cc(-c2ccc(OCCN3CCN(C)CC3)nc2)ccc1C` 20.6 º

Query: ΔTm (º) (TSA); subject: `Cc1ccc(-c2ccc(S(=O)(=O)N3CCN(C)CC3)cc2)cc1N(CC(C)C)c1nc(-c2nc(N)cc(N)n2)cs1` 20.49 º

Query: ΔTm (º) (TSA); subject: `CCCN(c1nc(-c2nc(N)cc(N)n2)cs1)c1cc(-c2ccc(S(=O)(=O)N3CCN(C)CC3)cc2C(F)(F)F)ccc1C` 22.23 º

Query: ΔTm (º) (TSA); subject: `Cc1ccc(-c2ccc(CCN3CCN(C)CC3)cc2)cc1N(CC1CC1)c1nc(-c2nc(N)cc(N)n2)cs1` 19.7 º

Query: ΔTm (º) (TSA); subject: `CCCN(c1nc(-c2nc(N)cc(N)n2)cs1)c1cc(-c2ccc(S(=O)(=O)N3CCN(C)CC3)cc2OC)ccc1C` 19.72 º
